Item-by-item account of inhibition
# System: M18 aspartyl aminopeptidase (Plasmodium falciparum 3D7)
# assay-details: inhibition of P. falciparum M18 aminopeptidase – biochemical, QFRET, recombinant enzyme, primary screen (AID 1822);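 note: 0% = plate median of test compound wells and 100% = 2 mM ZnCl2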
# condition-label: recombinant PfM18AAP, H-Glu-NHMec fluorogenic cleavage; at 7.35 µM; active compounds read high
The campaign covered roughly 290,000 compounds. About 3,500 (1.2%) were called active. The sample as a whole holds a higher share of actives than the screen did.
Use % as the unit, but write only the number.

Solved entries:
{"molecule": "S=C(NCCCc1ccccc1)Nc1ccc(Br)cc1", "value-measured": -6.24}
{"molecule": "COc1cccc(CN2CCN(Cc3ccc4cccc(F)c4n3)CC2CCO)c1 (configuration not stated)", "value-measured": 2.05}
{"molecule": "Cn1cncc1COC(=O)c1ccc(Cl)cc1", "value-measured": -13.9}

Give a short answer stating reported inhibition for `COC(=O)C1CCN(C(=O)c2ccc3oc(Cc4ccc(Cl)cc4)nc3c2)CC1` .
6.38

Give a short answer stating reported inhibition for `NS(=O)(=O)c1ccc(CCNC(=O)c2nc(CS(=O)(=O)c3ccc(Cl)cc3)no2)cc1` .
-4.83
